- EXPERIMENTAL DETAILS: recombinant UMI read abundance after kanamycin selection (control-corrected) (log10(CPM+1)); higher = more efficient recombination; extreme values may be limits of the assay; sequences stand for … in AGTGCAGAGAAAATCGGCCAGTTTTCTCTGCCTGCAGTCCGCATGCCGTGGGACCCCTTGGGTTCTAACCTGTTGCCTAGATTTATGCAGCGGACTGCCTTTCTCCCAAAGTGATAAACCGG…AGGTTGGTTTCACT; site = the 11-nt donor

[
  {
    "ITEM SEQUENCE": "CGTTTGGCATGGACCGGTTTTCCCGGTAATCCGTATTTGCT (site CGTCTGGCTAG)",
    "recombinant UMI read abundance (log10)": 0.00793
  },
  {
    "ITEM SEQUENCE": "ACCCTGTCATGGACCGGTTTTCCCGGTAATCCGTATTTGGG (site ACCCTGTCTCC)",
    "recombinant UMI read abundance (log10)": 0
  },
  {
    "ITEM SEQUENCE": "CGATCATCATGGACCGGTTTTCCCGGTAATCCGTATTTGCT (site CAATCATCTAG)",
    "recombinant UMI read abundance (log10)": 1.62
  },
  {
    "ITEM SEQUENCE": "AACTTGGCATGGACCGGTTTTCCCGGTAATCCGTATTTGGA (site TACTTGGCTTC)",
    "recombinant UMI read abundance (log10)": 0.393
  },
  {
    "ITEM SEQUENCE": "TAAACCCCATGGACCGGTTTTCCCGGTAATCCGTATTTGTA (site TAAACCCCTTA)",
    "recombinant UMI read abundance (log10)": 1.33
  },
  {
    "ITEM SEQUENCE": "GCAAAGCCATGGACCGGTTTTCCCGGTAATCCGTATTTGGG (site GCAAAGCCTCC)",
    "recombinant UMI read abundance (log10)": 0.00379
  },
  {
    "ITEM SEQUENCE": "CGGGCATCATGGACCGGTTTTCCCGGTAATCCGTATTTGCT (site CGGACATCTAG)",
    "recombinant UMI read abundance (log10)": 0.763
  },
  {
    "ITEM SEQUENCE": "AACGGTACATGGACCGGTTTTCCCGGTAATCCGTATTTGGG (site AACGGTACTCC)",
    "recombinant UMI read abundance (log10)": 0.0069
  },
  {
    "ITEM SEQUENCE": "TCCAACGCATGGACCGGTTTTCCCGGTAATCCGTATTTGCG (site TCCAACGCTCG)",
    "recombinant UMI read abundance (log10)": 0.0127
  }
]

====

The entries below are paired with their reported recombinant barcode read abundance (log10).
- EXPERIMENTAL DETAILS: recombinant barcode read abundance after kanamycin selection (control-corrected) (log10(CPM+1)); higher = more efficient recombination; sequences stand for … in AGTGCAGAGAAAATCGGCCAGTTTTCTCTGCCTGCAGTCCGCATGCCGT…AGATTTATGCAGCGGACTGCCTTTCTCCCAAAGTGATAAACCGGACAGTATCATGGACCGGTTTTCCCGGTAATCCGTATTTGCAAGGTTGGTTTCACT; site = the 11-nt target
MEASURED PARAMETER: recombinant barcode read abundance (log10)

[
  {
    "ITEM SEQUENCE": "CTCTAGCCTTGGGTTCTAACCTGTTGCAT (site CTCTAGCCTAT)",
    "MEAS VALUE": 0.505
  },
  {
    "ITEM SEQUENCE": "GTACGTACTTGGGTTCTAACCTGTTGCCT (site ATACGTACTAG)",
    "MEAS VALUE": 0.0704
  },
  {
    "ITEM SEQUENCE": "TCTGTAACTTGGGTTCTAACCTGTTGCCT (site CAATCCTCTTA)",
    "MEAS VALUE": 0.183
  },
  {
    "ITEM SEQUENCE": "AGGTCACCTTGGGTTCTAACCTGTTGCAT (site AGGTCACCTAT)",
    "MEAS VALUE": 2.12
  },
  {
    "ITEM SEQUENCE": "CACTTAACTTGGGTTCTAACCTGTTGCCA (site TGACAGTCTCT)",
    "MEAS VALUE": 0.0672
  },
  {
    "ITEM SEQUENCE": "TAGGCCACTTGGGTTCTAACCTGTTGCGT (site TAGGCCACTAA)",
    "MEAS VALUE": 0.522
  },
  {
    "ITEM SEQUENCE": "CCGCGCACTTGGGTTCTAACCTGTTGCCT (site CCGCGCTCTAG)",
    "MEAS VALUE": 0.206
  },
  {
    "ITEM SEQUENCE": "AGAGCGACTTGGGTTCTAACCTGTTGCTA (site AGAGCGACTTA)",
    "MEAS VALUE": 0.654
  },
  {
    "ITEM SEQUENCE": "GCCATACCTTGGGTTCTAACCTGTTGCCT (site GCCATACCTAG)",
    "MEAS VALUE": 0.199
  },
  {
    "ITEM SEQUENCE": "ACGCATCCTTGGGTTCTAACCTGTTGCCT (site AGGCATCCTAG)",
    "MEAS VALUE": 0.0797
  }
]
